Assay: Toxicity in mouse assessed as survival rate at 50 mg/kg, ip measured for 7 days
Assay type: organism-based
Conditions: in vivo, time 7 day
reported.metric: survival at 168 h

Short answer for CC(C)[C@@H]1NC(=O)[C@@H](C(C)C)NC(=O)[C@H](C(C)C)NC(=O)[C@@H](CCCCN)NC(=O)[C@H](Cc2c(C(c3ccccc3)(c3ccccc3)c3ccccc3)[nH]c3ccccc23)NC(=O)[C@@H](C(C)C)NC(=O)[C@@H]2CSC1N2 : survival at 168 h was 100%

* * *

Tested on: Staphylococcus aureus
Assay: Antimicrobial activity against methicillin-resistant Staphylococcus aureus ATCC 43300 assessed as inhibition of visible bacterial growth incubated for 18 hrs by CLSI based analysis
Type: functional
reported.metric: MIC (µg/mL)
Express your answer in µg/mL, writing the number without its unit.

substance.smiles: C#CC[C@H]1NC(=O)[C@@H]2CSC(N2)[C@H](C(C)C)NC(=O)[C@@H](C(C)C)NC(=O)[C@H](C(C)C)NC(=O)[C@@H](CCCCN)NC(=O)[C@H](Cc2c(C(c3ccccc3)(c3ccccc3)c3ccccc3)[nH]c3ccccc23)NC1=O
system.under.test: Staphylococcus aureus
MIC / µg/mL: 6.25
//
substance.smiles: CC(C)[C@@H]1NC(=O)[C@@H](C(C)C)NC(=O)[C@H](C(C)C)NC(=O)[C@@H](CCCCN)NC(=O)[C@H](Cc2c(C(c3ccccc3)(c3ccccc3)c3ccccc3)[nH]c3ccccc23)NC(=O)[C@@H](C(C)C)NC(=O)[C@@H]2CSC1N2
system.under.test: Staphylococcus aureus
MIC / µg/mL: 6.25
//
substance.smiles: CC(C)C[C@H]1NC(=O)[C@H](Cc2c(C(c3ccccc3)(c3ccccc3)c3ccccc3)[nH]c3ccccc23)NC(=O)[C@@H](CCCCN)NC(=O)[C@@H]2CSC(N2)[C@H](C(C)C)NC(=O)[C@@H](C(C)C)NC(=O)[C@H](C(C)C)NC1=O
system.under.test: Staphylococcus aureus
MIC / µg/mL: 12.5
//
substance.smiles: CC(C)C[C@H]1NC(=O)[C@H](Cc2c(C(c3ccccc3)(c3ccccc3)c3ccccc3)[nH]c3ccccc23)NC(=O)[C@@H](C(C)C)NC(=O)[C@@H]2CSC(N2)[C@H](C(C)C)NC(=O)[C@@H](CCCCN)NC(=O)[C@H](C(C)C)NC1=O
system.under.test: Staphylococcus aureus
MIC / µg/mL: 3.13

Here's the next entry for you.
Quick note, MIC for CC(C)[C@@H]1NC(=O)[C@@H](C(C)C)NC(=O)[C@H](C(C)C)NC(=O)[C@@H](CCCCN)NC(=O)[C@H](Cc2c(C(c3ccccc3)c3ccccc3)[nH]c3ccccc23)NC(=O)[C@@H](C(C)C)NC(=O)[C@@H]2CSC1N2 landed at 12.5

* * *

System: Staphylococcus epidermidis
Test: Antimicrobial activity against Staphylococcus epidermidis ATCC 12228 assessed as inhibition of visible bacterial growth incubated for 18 hrs by CLSI based analysis
Type: functional
Listed compounds paired with reported MIC
Field format: number, assumed µg/mL, no unit text.

Some solved entries appear below for comparison.
compound: CC(C)C[C@H]1NC(=O)[C@H](Cc2c(C(c3ccccc3)(c3ccccc3)c3ccccc3)[nH]c3ccccc23)NC(=O)[C@@H](CCCCN)NC(=O)[C@@H]2CSC(N2)[C@H](C(C)C)NC(=O)[C@@H](C(C)C)NC(=O)[C@H](C(C)C)NC1=O
MIC, µg/mL: 12.5

compound: CC(C)C[C@H]1NC(=O)[C@H](Cc2c(C(c3ccccc3)c3ccccc3)[nH]c3ccccc23)NC(=O)[C@@H](C(C)C)NC(=O)[C@@H]2CSC(N2)[C@H](C(C)C)NC(=O)[C@@H](C(C)C)NC(=O)[C@H](CCCCN)NC1=O
MIC, µg/mL: 25

compound: CC(C)C[C@H]1NC(=O)[C@H](Cc2c(C(c3ccccc3)c3ccccc3)[nH]c3ccccc23)NC(=O)[C@@H](C(C)C)NC(=O)[C@@H]2CSC(N2)[C@H](C(C)C)NC(=O)[C@@H](CCCCN)NC(=O)[C@H](C(C)C)NC1=O
MIC, µg/mL: 12.5

compound: CC(C)C[C@H]1NC(=O)[C@H](Cc2c(C(c3ccccc3)(c3ccccc3)c3ccccc3)[nH]c3ccccc23)NC(=O)[C@@H](C(C)C)NC(=O)[C@@H]2CSC(N2)[C@H](C(C)C)NC(=O)[C@@H](CCCCN)NC(=O)[C@H](C(C)C)NC1=O
MIC, µg/mL: 6.25

// recorded MIC for CC(=O)NC[C@H]1CN(c2ccc(N3CCOCC3)c(F)c2)C(=O)O1 [LINEZOLID] : 0.39

response.value for CC(C)[C@@H]1NC(=O)[C@@H](C(C)C)NC(=O)[C@H](C(C)C)NC(=O)[C@@H](CCCCN)NC(=O)[C@H](Cc2c(C(c3ccccc3)(c3ccccc3)c3ccccc3)[nH]c3ccccc23)NC(=O)[C@@H](C(C)C)NC(=O)[C@@H]2CSC1N2 (field: MIC) = 6.25

* * *

Property: selectivity ratio; scope: individual compounds
Experiment: Therapeutic index, ratio of HC5 for hemolytic activity in mouse Red blood cell to MIC for antimicrobial activity against Staphylococcus aureus ATCC 25923 assessed as inhibition of visible bacterial growth
Format: toxicity, cell-based, RBC
Conditions: red blood cells, read-out: TI
Note: the reply should be a number with no unit written.

substance.smiles: CC(C)C[C@H]1NC(=O)[C@H](Cc2c(C(c3ccccc3)c3ccccc3)[nH]c3ccccc23)NC(=O)[C@@H](C(C)C)NC(=O)[C@@H]2CSC(N2)[C@H](C(C)C)NC(=O)[C@@H](CCCCN)NC(=O)[C@H](C(C)C)NC1=O
result.value: 3.48

Next compound, selectivity ratio to be filled in.
Just so you know, measured selectivity ratio for CC(C)C[C@H]1NC(=O)[C@H](Cc2c(C(c3ccccc3)(c3ccccc3)c3ccccc3)[nH]c3ccccc23)NC(=O)[C@@H](C(C)C)NC(=O)[C@@H]2CSC(N2)[C@H](C(C)C)NC(=O)[C@@H](C(C)C)NC(=O)[C@H](CCCCN)NC1=O came out at 11

* * *

Test system: Enterococcus faecium
Assay: Antimicrobial activity against vancomycin-resistant Enterococcus faecium assessed as inhibition of visible bacterial growth incubated for 18 hrs by CLSI based analysis
Assay type: functional
reported.metric: MIC
Note: state the figure and append the unit.

Example entries and their recorded answers appear below.
compound: CC(C)[C@@H]1NC(=O)[C@@H](C(C)C)NC(=O)[C@H](C(C)C)NC(=O)[C@@H](CCCCN)NC(=O)[C@H](Cc2c(C(c3ccccc3)c3ccccc3)[nH]c3ccccc23)NC(=O)[C@@H](C(C)C)NC(=O)[C@@H]2CSC1N2
MIC: 50 µg/mL

compound: CC(=O)NC[C@H]1CN(c2ccc(N3CCOCC3)c(F)c2)C(=O)O1 [LINEZOLID]
MIC: 1.56 µg/mL

compound: CC(C)C[C@H]1NC(=O)[C@H](Cc2c(C(c3ccccc3)(c3ccccc3)c3ccccc3)[nH]c3ccccc23)NC(=O)[C@@H](C(C)C)NC(=O)[C@@H]2CSC(N2)[C@H](C(C)C)NC(=O)[C@@H](C(C)C)NC(=O)[C@H](CCCCN)NC1=O
MIC: 12.5 µg/mL

Readout MIC for CC(C)C[C@H]1NC(=O)[C@H](Cc2c(C(c3ccccc3)c3ccccc3)[nH]c3ccccc23)NC(=O)[C@@H](C(C)C)NC(=O)[C@@H]2CSC(N2)[C@H](C(C)C)NC(=O)[C@@H](CCCCN)NC(=O)[C@H](C(C)C)NC1=O , test system Enterococcus faecium, was 25 µg/mL

Recorded MIC for CN[C@H](CC(C)C)C(=O)N[C@H]1C(=O)N[C@@H](CC(N)=O)C(=O)N[C@H]2C(=O)N[C@H]3C(=O)N[C@H](C(=O)N[C@H](C(=O)O)c4cc(O)cc(O)c4-c4cc3ccc4O)[C@H](O)c3ccc(c(Cl)c3)Oc3cc2cc(c3O[C@@H]2O[C@H](CO)[C@@H](O)[C@H](O)[C@H]2O[C@H]2C[C@](C)(N)[C@H](O)[C@H](C)O2)Oc2ccc(cc2Cl)[C@H]1O [VANCOMYCIN] on Enterococcus faecium was 25 µg/mL

Entry CC(C)C[C@H]1NC(=O)[C@H](Cc2c(C(c3ccccc3)(c3ccccc3)c3ccccc3)[nH]c3ccccc23)NC(=O)[C@@H](CCCCN)NC(=O)[C@@H]2CSC(N2)[C@H](C(C)C)NC(=O)[C@@H](C(C)C)NC(=O)[C@H](C(C)C)NC1=O : MIC on Enterococcus faecium = 25 µg/mL

* * *

Test system: Enterococcus faecium
Assay: Antimicrobial activity against vancomycin-resistant Enterococcus faecium assessed as inhibition of visible bacterial growth incubated for 18 hrs by CLSI based analysis
Assay type: functional
reported.metric: MIC

substance.smiles: CC(C)C[C@H]1NC(=O)[C@H](Cc2c(C(c3ccccc3)c3ccccc3)[nH]c3ccccc23)NC(=O)[C@@H](C(C)C)NC(=O)[C@@H]2CSC(N2)[C@H](C(C)C)NC(=O)[C@@H](C(C)C)NC(=O)[C@H](CCCCN)NC1=O
system.under.test: Enterococcus faecium
MIC: 50 µg/mL

Record CC(C)C[C@H]1NC(=O)[C@H](Cc2c[nH]c3ccccc23)NC(=O)[C@@H](C(C)C)NC(=O)[C@@H]2CSC(N2)[C@H](C(C)C)NC(=O)[C@@H](CCCCN)NC(=O)[C@H](C(C)C)NC1=O . Reported MIC: > 50 µg/mL

Query C#CC[C@H]1NC(=O)[C@@H]2CSC(N2)[C@H](C(C)C)NC(=O)[C@@H](C(C)C)NC(=O)[C@H](C(C)C)NC(=O)[C@@H](CCCCN)NC(=O)[C@H](Cc2c(C(c3ccccc3)(c3ccccc3)c3ccccc3)[nH]c3ccccc23)NC1=O yields MIC of 25 µg/mL

Looking up CC(C)[C@@H]1NC(=O)[C@@H](C(C)C)NC(=O)[C@H](C(C)C)NC(=O)[C@@H](CCCCN)NC(=O)[C@H](Cc2c(C(c3ccccc3)(c3ccccc3)c3ccccc3)[nH]c3ccccc23)NC(=O)[C@@H](C(C)C)NC(=O)[C@@H]2CSC1N2 , I found its MIC recorded as 12.5 µg/mL
